- Test system: Alternaria alternata
- experiment_notes: Germination of the spores in vitro
- Type: cell-based
- condition_details: AA; x = 40 μg/ml
measured_metric: germination of the spores

Please review the following examples before continuing.
CC12CCC(CC1)C(C)(C)O2 [EUCALYPTOL, eucalyptol] ... ++
C=CCc1ccc(O)c(OC)c1 [EUGENOL, eugenol] ... 0
C=CCc1ccc2c(c1)OCO2 [SAFROLE, safrole] ... ++
C=C(C)C1CC=C(C)C(=O)C1 (centres unmarked) [CARVONE, carvone] ... +

input: Entry under review: CC=Cc1ccc(O)c(OC)c1 [ISOEUGENOL, isoeugenol] . Reported germination of the spores?
output: 0

====

- Tested on: Escherichia coli
- experiment_notes: Bactericidal activity in vitro in LB agar medium
- Format: cell-based
- condition_details: Escherichia sp., 37° C., read-out: MIC (concentration needed to completely inhibit the growth of the bacteria)
- Protocol: The bactericidal activity of eugenol and isoeugenol was evaluated in vitro and compared with that of other terpenes. The culture medium used is the following LB medium: Bactotryptone: 1% by weight Yeast extract: 0.5% by weight A suspension of bacteria at 10^6 CFU/ml was prepared in sterilized water from the LB medium. 200 μl of this bacterial suspension were added to 20 ml of presterilized LB culture medium brought to 55° C. The tested terpene is then added to the culture medium. […]
measured_metric: MIC

input: Dear colleague, I am looking for the recorded MIC of the following molecule: CC12CCC(CC1)C(C)(C)O2 [EUCALYPTOL, eucalyptol]
output: > 640 µg/mL

input: What value of MIC has been recorded for this entry: C=CCc1ccc(O)c(OC)c1 [EUGENOL, eugenol]
output: 40 to 80 µg/mL

input: What does the record list as MIC for CC=Cc1ccc(O)c(OC)c1 [ISOEUGENOL, isoeugenol] ?
output: 40 to 80 µg/mL

input: Could you tell me which MIC is on file for C=C(C)C1CC=C(C)C(=O)C1 (stereo not shown) [CARVONE, carvone] ?
output: 320 to 640 µg/mL

====

- Test system: Penicillium expansum
- experiment_notes: Germination of the spores in vitro
- Assay type: cell-based
- condition_details: PE; x = 40 μg/ml
- Procedure: The activity of eugenol and of isoeugenol on the germination of the spores was evaluated in vitro and compared with that of other terpenes. The procedure of Example 4 is used to do this, except that the concentration of eugenol and of isoeugenol was set at x μg/ml in the culture media used and that 50 μl of a suspension of spores, adjusted to 100,000 spores/ml, are deposited in each Petri dish. […] The results were evaluated using the following assessment criteria: […]
measured_metric: germination of the spores

Reference set (4 entries):
CC12CCC(CC1)C(C)(C)O2 ... +
C=CCc1ccc(O)c(OC)c1 ... 0
C=CCc1ccc2c(c1)OCO2 ... +
C=C(C)C1CC=C(C)C(=O)C1 (centres unmarked) ... +

Here is the next item to consider.
input: // lookup germination of the spores for "CC=Cc1ccc(O)c(OC)c1"
output: 0

====

- Test system: potato tubers
- experiment_notes: Sprouting-inhibiting treatment of potato tubers by thermal fogging
- Assay type: in vivo
- condition_details: after 5 months; cold room 8 to 9° C.; 45 g/tonne then 15 g/tonne every 20 days by thermal fogging
measured_metric: Tubers with sprouts <2 mm (%)
API: value field is a number in %; no unit string.

input: Please state recorded Tubers with sprouts <2 mm (tested on potato tubers) of C=C(C)[C@H]1CC=C(C)CC1 [LIMONENE, limonene]
output: 1.5

input: // lookup Tubers with sprouts <2 mm | system=potato tubers | key= C=CCc1ccc(O)c(OC)c1 [EUGENOL, eugenol]
output: 35.2

input: State its Tubers with sprouts <2 mm on potato tubers: CC=Cc1ccc(O)c(OC)c1 [ISOEUGENOL, isoeugenol]
output: 56.8

input: Field: Tubers with sprouts <2 mm (potato tubers). Entry: CC12CCC(CC1)C(C)(C)O2 [EUCALYPTOL, eucalyptol]
output: 26.7

input: Item: C=CCc1ccc2c(c1)OCO2 [SAFROLE, safrole] Test system: potato tubers Read-out: Tubers with sprouts <2 mm Value: ?
output: 15.6

====

- Test system: Geocrichum candidum
- experiment_notes: Germination of the spores in vitro
- Format: cell-based
- condition_details: GC; x = 80 μg/ml
measured_metric: germination of the spores
Answer field: number only, no words.

Examples with their reported germination of the spores follow.
C=C(C)C1CC=C(C)C(=O)C1 (centres unmarked) [CARVONE, carvone] ... 0
C=CCc1ccc(O)c(OC)c1 [EUGENOL, eugenol] ... 0

Could you now look at the following compound, please?
input: Can you look up the measured germination of the spores of CC=Cc1ccc(O)c(OC)c1 [ISOEUGENOL, isoeugenol] for me?
output: 0

====

- Test system: Gliocladium roseum
- experiment_notes: Fungicidal activity in vitro: mycelial growth on Cristomalt agar
- Format: cell-based
- condition_details: Clonostachys rosea; GR; min-max range of several experiments; 22° C.; read-out: MIC (content giving complete inhibition of mycelial growth)
measured_metric: MIC

These solved cases illustrate the format of a correct answer.
C=CCc1ccc(O)c(OC)c1 ... 20 to 40 mg/L
CC=Cc1ccc(O)c(OC)c1 ... 20 to 40 mg/L
C=C(C)C1CC=C(C)C(=O)C1 (stereo not shown) ... 40 to 80 mg/L

Kindly review the next molecule as well.
input: Suppose we examine the molecule "CC12CCC(CC1)C(C)(C)O2" ; what MIC value has been reported?
output: 320 to 640 mg/L

====

- Test system: Erwinia carotovora
- experiment_notes: Bactericidal activity in vitro in LB agar medium
- Type: cell-based
- condition_details: Concentration 320 μg/ml; 28° C.
measured_metric: growth in the culture medium with respect to the control

CC=Cc1ccc(O)c(OC)c1 ... −
C=CCc1ccc(O)c(OC)c1 ... −
C=CCc1ccc2c(c1)OCO2 ... +
CC12CCC(CC1)C(C)(C)O2 ... ++

We now examine a further molecule.
input: Item C=C(C)C1CC=C(C)C(=O)C1 (centres unmarked) has what recorded growth in the culture medium with respect to the control?
output: −

====

- Test system: potato tubers
- experiment_notes: Sprouting-inhibiting treatment of potato tubers by thermal fogging
- Assay type: in vivo
- condition_details: after 5 months; cold room 8 to 9° C.; 45 g/tonne then 15 g/tonne every 20 days by thermal fogging
Reported Tubers with sprouts >2 mm by item:
Form entry: value (%) — number only.

# annotated cases, reported Tubers with sprouts >2 mm shown
C=C(C)[C@H]1CC=C(C)CC1 ... 96.8
C=CCc1ccc(O)c(OC)c1 ... 12.0
CC=Cc1ccc(O)c(OC)c1 ... 14.4

input: # input compound: "C=CCc1ccc2c(c1)OCO2" ; wanted: its Tubers with sprouts >2 mm
output: 76.6

input: I'd like to know its Tubers with sprouts >2 mm. The compound in question is "CC12CCC(CC1)C(C)(C)O2"
output: 58.4

====

Listing of entries alongside the reported MIC.
- Test system: Phlyctaena vagabonda (“Gloeosporium”)
- experiment_notes: Fungicidal activity in vitro: mycelial growth on Cristomalt agar
- Assay type: cell-based
- condition_details: PV; min-max range of several experiments; 22° C.; read-out: MIC (content giving complete inhibition of mycelial growth)

Here's what some known entries look like.
CC12CCC(CC1)C(C)(C)O2 [EUCALYPTOL, eucalyptol] ... 160 to 320 µg/mL
C=CCc1ccc(O)c(OC)c1 [EUGENOL, eugenol] ... 40 to 80 µg/mL
C=C(C)C1CC=C(C)C(=O)C1 (stereo not shown) [CARVONE, carvone] ... 80 to 160 µg/mL

input: For the molecule shown here, CC=Cc1ccc(O)c(OC)c1 [ISOEUGENOL, isoeugenol] , give the reported MIC.
output: 20 to 40 µg/mL

====

- Test system: Penicillium digitatum
- experiment_notes: Germination of the spores in vitro
- Format: cell-based
- condition_details: PD; x = 40 μg/ml
measured_metric: germination of the spores
Response field accepts a number only; no unit should be typed.

CC=Cc1ccc(O)c(OC)c1 ... 0

Now, please, on to the next molecule.
input: Any idea what germination of the spores was measured for "C=CCc1ccc(O)c(OC)c1" ?
output: 0

====

- Tested on: Fusarium oxysporum
- experiment_notes: Germination of the spores in vitro
- Type: cell-based
- condition_details: FO; x = 40 μg/ml
measured_metric: germination of the spores

Before answering, review these 4 worked examples.
CC12CCC(CC1)C(C)(C)O2 ... ++
C=C(C)C1CC=C(C)C(=O)C1 (centres unmarked) ... +
C=CCc1ccc2c(c1)OCO2 ... ++
CC=Cc1ccc(O)c(OC)c1 ... 0

# ---- query molecule ----
input: Which value of germination of the spores has been reported for "C=CCc1ccc(O)c(OC)c1" in the records?
output: 0
